Tested on: RAW264.7 cells
method: RAW264.7 cell survival rate by CCK8 method
Format: cell-based, mouse
conditions: compound 10 prnol/L, 0.1% DMSO, CCK8, x ± s, n = 3, normal saline control = 1
Known Cell Survival Rate of a selection of compounds

For orientation, consider the following solved cases.
[[record]]
compound = "COC(=O)[C@H](CO)NCCC[C@](C)(O[C@H]1O[C@H](COC(C)=O)[C@@H](OC(C)=O)[C@H](OC(C)=O)[C@H]1OC(C)=O)C1CC[C@]2(C)[C@@H]1C(OC(C)=O)CC1[C@@]3(C)CC[C@H](OC(C)=O)C(C)(C)C3CC[C@]12C (stereo partly shown)"
readout_value = "0.86 ± 0.01"

[[record]]
compound = "CCOC(=O)CCNCCC[C@](C)(OC(C)=O)C1CC[C@]2(C)[C@@H]1C(OC(C)=O)CC1[C@@]3(C)CC[C@H](OC(C)=O)C(C)(C)C3CC[C@]12C (stereo partly shown)"
readout_value = "0.98 ± 0.07"

[[record]]
compound = "COC(=O)[C@H](CO)NCCC[C@](C)(OC(C)=O)C1CC[C@]2(C)[C@@H]1C(OC(C)=O)CC1[C@@]3(C)CC[C@H](OC(C)=O)C(C)(C)C3CC[C@]12C (stereo partly shown)"
readout_value = "1.03 ± 0.15"


Could you now consider this next compound?
Lookup result for COC(=O)[C@H](Cc1ccccc1)NCCC[C@](C)(OC(C)=O)C1CC[C@]2(C)[C@@H]1C(OC(C)=O)CC1[C@@]3(C)CC[C@H](OC(C)=O)C(C)(C)C3CC[C@]12C (stereo partly shown) ; measured Cell Survival Rate: 0.87 ± 0.04

----------
Test system: RAW264.7 cells
method: RAW264.7 cell survival rate by CCK8 method
Assay type: cell-based, mouse
conditions: compound 10 prnol/L, 0.1% DMSO, CCK8, x ± s, n = 3, normal saline control = 1
Marks after values point to notes of the source that are not given here.
Reported Cell Survival Rate values for a set of compounds

[[record]]
compound = "CC(=O)OC[C@H]1O[C@H](O[C@@](C)(CCC=C(C)C)C2CC[C@]3(C)[C@@H]2C(OC(C)=O)CC2[C@@]4(C)CC[C@H](OC(C)=O)C(C)(C)C4CC[C@]23C)[C@H](OC(C)=O)[C@@H](OC(C)=O)[C@@H]1OC(C)=O (stereo partly drawn)"
readout_value = "0.65 ± 0.07 ^a"

[[record]]
compound = "CC(=O)OC[C@H]1O[C@H](O[C@@](C)(CCC=O)C2CC[C@]3(C)[C@@H]2C(OC(C)=O)CC2[C@@]4(C)CC[C@H](OC(C)=O)C(C)(C)C4CC[C@]23C)[C@H](OC(C)=O)[C@@H](OC(C)=O)[C@@H]1OC(C)=O (stereo partly drawn)"
readout_value = "0.42 ± 0.03 ^a"


The compound listed as CC(=O)OC[C@H]1O[C@H](O[C@@](C)(CCC2OC2(C)C)C2CC[C@]3(C)[C@@H]2C(OC(C)=O)CC2[C@@]4(C)CC[C@H](OC(C)=O)C(C)(C)C4CC[C@]23C)[C@H](OC(C)=O)[C@@H](OC(C)=O)[C@@H]1OC(C)=O (stereo partly drawn) has a reported Cell Survival Rate of 0.51 ± 0.08 ^a
